Target: human calcitonin receptor (CTR) and RAMP3 (AMY3) (Homo sapiens, UniProt O60896+P30988)
Sequence (O60896 24-148, one chain of several): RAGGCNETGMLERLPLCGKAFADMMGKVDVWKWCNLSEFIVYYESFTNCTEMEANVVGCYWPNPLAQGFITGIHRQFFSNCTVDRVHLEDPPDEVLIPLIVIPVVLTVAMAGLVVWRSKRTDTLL
Experiment: Amylin Receptor cAMP Assay II
Assay type: cell-based
Details: COS-7/AMY3 cells, cAMP dynamic 2 kit, read-out: Amylin Receptor cAMP Stimulation Activity: EC50
pEC50: −log10 of the molar value.
measurement.name: pEC50

Look over these answered cases.
compound="Cc1nnc(-c2c(CCC3CCOCC3)nc3c(c2-c2ccc4c(ccn4C(C)c4ccc(C#N)c(F)c4)c2)C(=O)N2CCOC[C@@H]32)o1 (stereo partly shown)" measurement_name=pEC50 quantitative_result=7.20
compound="Cc1noc(-c2c(CCC3CCOCC3)nc3c(c2-c2cc4ccnc(N[C@@H]5CCc6ncccc65)c4s2)S(=O)(=O)CC3C(C)C)n1 (stereo partly shown)" measurement_name=pEC50 quantitative_result=6.58
compound=Cc1nnc(-c2c(CCC3CCOCC3)nc3c(c2-c2ccc4c(c2)oc(=O)n4Cc2ccc(C#N)cn2)S(=O)(=O)N2CCC[C@@H]32)o1 measurement_name=pEC50 quantitative_result=6.68

[I] CC(C)C1CS(=O)(=O)c2c1nc(CCC1CCOCC1)c(-c1nnc(CN(C)C)o1)c2-c1cc2ccnc(N[C@@H]3CCc4ncccc43)c2s1 (stereo partly shown)
[II] Cc1nnc(-c2c(CCc3ccc(F)cc3)nc3c(c2-c2cnc4c(ccn4Cc4ccc(C#N)c(F)c4)c2)c(=O)n2n3CCC2)o1
## Task Which entry shows the lesser value of pEC50 here, I or II ? Mark your answer with the label of the selected entry.
## Result I
(I: 6.59, II: 7.13)

[a] Cc1nnc(-c2c(C(C)C)nc3c(c2-c2ccc4c(c2)OCC(=O)N4Cc2ccc(F)cn2)C(=O)N2CCC[C@@H]32)o1
[b] Cc1nnc(-c2c(CCC3CCOCC3)nc3c(c2-c2cc4ccnc(N[C@@H]5CCc6ncccc65)c4s2)S(=O)(=O)CC3C)o1 (stereo partly shown)
[c] Cc1nnc(-c2c(CCc3ccc(F)cc3)nc3c(c2-c2ccc4c(c2)oc(=O)n4Cc2ccc(C#N)cn2)c(=O)n2n3CCC2)o1
## Task Arrange these 3 compounds in increasing order of pEC50. To answer, write out the labels according to the requested order.
## Result a, b, c

[A] Cc1cnc(-c2c(CCC34CCC(CC3)OC4)nc3c(c2-c2ccc4c(c2)OCC(=O)N4Cc2ncc(Cl)cc2F)c(=O)n2n3CCC2)o1
[B] Cc1nnc(-c2c(CCC3CCOCC3)nc3c(c2-c2cnc4c(ccn4Cc4ccc(C#N)cn4)c2)S(=O)(=O)CC3C(C)C)o1 (stereo not shown)
## Task For this pair, A and B , which shows a numerically higher pEC50? Mark your answer with the label of the selected entry.
## Result A
(A: 7.26, B: 5.81)

====

Target: human calcitonin receptor (CTR) (Homo sapiens, UniProt P30988)
Sequence (P30988 25-474): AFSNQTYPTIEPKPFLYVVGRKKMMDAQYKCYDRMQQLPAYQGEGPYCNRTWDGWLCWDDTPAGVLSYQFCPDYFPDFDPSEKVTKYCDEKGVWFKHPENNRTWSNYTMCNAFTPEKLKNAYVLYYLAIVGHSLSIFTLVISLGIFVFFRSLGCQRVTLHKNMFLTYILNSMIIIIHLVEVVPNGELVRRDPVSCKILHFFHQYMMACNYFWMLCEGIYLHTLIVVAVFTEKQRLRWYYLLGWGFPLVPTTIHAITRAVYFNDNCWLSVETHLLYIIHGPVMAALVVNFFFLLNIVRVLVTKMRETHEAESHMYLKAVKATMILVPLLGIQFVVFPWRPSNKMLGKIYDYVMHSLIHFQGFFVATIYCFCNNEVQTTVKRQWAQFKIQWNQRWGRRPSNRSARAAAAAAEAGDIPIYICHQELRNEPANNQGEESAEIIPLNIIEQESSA
Experiment: Calcitonin receptor (CTR) cAMP Assay
Conditions: COS7-human CTR Clone #2 cells, cAMP dynamic 2 kit; read-out: Calcitonin Receptor cAMP Stimulation Activity: EC50
measurement.name: EC50 (nM)

molecule="Cc1nnc(-c2c(CCC3CCOCC3)nc3c(c2-c2ccc4c(cnn4C(C)c4ccc(C#N)c(F)c4)c2)C(=O)N2CCOC[C@@H]32)o1 (stereo partly drawn)" unit_annotation=nM quantitative_result=11.3
molecule=Cc1cnc(-c2c(CCC34CCC(CC3)OC4)nc3c(c2-c2ccc4c(c2)OCC(=O)N4Cc2ccc(F)cn2)c(=O)n2n3CCC2)o1 unit_annotation=nM quantitative_result=9.64
molecule=Cc1nnc(-c2c(CCc3ccc(F)cc3)nc3c(c2-c2ccc(C(=O)NCc4ccc(F)c(F)c4)s2)S(=O)(=O)N[C@H]3C(C)C)o1 unit_annotation=nM quantitative_result=2

[a] Cc1nnc(-c2c(CCC3CCOCC3)nc3c(c2-c2cn4c(N[C@@H]5CCc6ncccc65)cccc4n2)S(=O)(=O)CC3C(C)C)o1 (stereo partly drawn)
[b] Cc1nnc(-c2c(CCC3CCCCO3)nc3c(c2-c2ccc(C(=O)NCc4ccc(F)c(F)c4)s2)C(=O)N2CCC[C@@H]32)o1 (stereo partly drawn)
[c] Cc1nnc(-c2c(CCC3CCOCC3)nc3c(c2-c2ccc4c(c2)oc(=O)n4Cc2ccc(C#N)c(F)c2)C(=O)N2CCOC[C@@H]32)o1
[d] Cc1nnc(-c2c(CCC3CCOCC3)nc3c(c2-c2cc4ccnc(NCc5ccc(C#N)nc5)c4s2)S(=O)(=O)CC3C(C)C)o1 (stereo not drawn)
[e] Cc1nnc(-c2c(CCC3CCOCC3)nc3c(c2-c2ccc4c(c2)oc(=O)n4Cc2ccc(C#N)cn2)S(=O)(=O)CC3C(C)C)o1 (stereo not drawn)
## Task Arrange these 5 molecules in increasing order of EC50. To answer, write out the labels according to the requested order.
## Result c, e, b, d, a

[a] Cc1nnc(-c2c(CCC3CCOCC3)nc3c(c2-c2cc4ccnc(Nc5ccc(F)c(F)c5)c4s2)S(=O)(=O)CC3C(C)C)o1 (stereo not drawn)
[b] Cc1nnc(-c2c(CCC3CCOCC3)nc3c(c2-c2cc4ncnc(N[C@@H]5CCc6ncccc65)c4s2)S(=O)(=O)CC3C(C)C)o1 (stereo partly drawn)
[c] Cc1nnc(-c2c(CCC3CCOCC3)nc3c(c2-c2cnc4c(ccn4Cc4ccc(C#N)c(F)c4)c2)S(=O)(=O)N2CCC[C@@H]32)o1
## Task Arrange these 3 molecules in increasing order of EC50. To answer, write out the labels according to the requested order.
## Result c, b, a

====

Biological target: human calcitonin receptor (CTR) (Homo sapiens, UniProt P30988)
Assay: Calcitonin receptor (CTR) cAMP Assay
Conditions: COS7-human CTR Clone #2 cells, cAMP dynamic 2 kit; read-out: Calcitonin Receptor cAMP Stimulation Activity: EC50
pEC50: −log10 of the molar value.
measurement.name: pEC50

Look over these answered cases.
compound=CC(C)c1nnc(-c2c(CCC3CCOCC3)nc3c(c2-c2ccc4c(c2)oc(=O)n4Cc2ccc(C#N)c(F)c2)c(=O)n2n3CCC2)o1 measured_on="human calcitonin receptor (CTR) (Homo sapiens, UniProt P30988)" quantitative_result=8.73
compound=Cc1cnc(-c2c(CCC34CCC(CC3)OC4)nc3c(c2-c2ccc4c(c2)OC(C)(C)C(=O)N4Cc2ccc(F)cn2)c(=O)n2n3CCC2)o1 measured_on="human calcitonin receptor (CTR) (Homo sapiens, UniProt P30988)" quantitative_result=8.44
compound="Cc1nnc(-c2c(CC3COc4cc(F)ccc43)nc3c(c2-c2ccc(C(=O)NCc4ccc(F)c(F)c4)s2)C(=O)N2CCC[C@@H]32)o1 (stereo partly drawn)" measured_on="human calcitonin receptor (CTR) (Homo sapiens, UniProt P30988)" quantitative_result=7.66

[P] Cc1nnc(-c2c(CCC3CC(C)OC(C)C3)nc3c(c2-c2cc4ncnc(N[C@@H]5CCc6ncccc65)c4s2)S(=O)(=O)CC3C(C)C)o1 (stereo partly drawn)
[Q] COc1noc(-c2c(CCc3ccc(F)cc3)nc3c(c2-c2cc4ccnc(N[C@@H]5CCc6c(OC)cccc65)c4s2)C(=O)N2CCC[C@@H]32)n1
[R] Cc1nnc(-c2c(CCC3CCOCC3)nc3c(c2-c2ccc4c(c2)oc(=O)n4Cc2ccc(C#N)cn2)S(=O)(=O)N2CCC[C@@H]32)o1
## Task Arrange by pEC50, high to low. To answer, write out the labels according to the requested order.
## Result R, Q, P
(R: 8.41, Q: 7.68, P: 7.41)

====

Biological target: human calcitonin receptor (CTR) and RAMP3 (AMY3) (Homo sapiens, UniProt O60896+P30988)
Experiment: Amylin Receptor cAMP Assay II
Assay type: cell-based
Settings: COS-7/AMY3 cells, cAMP dynamic 2 kit, read-out: Amylin Receptor cAMP Stimulation Activity: EC50
Description: Amylin Receptor cAMPAssay II AMYRs are heterodimers of the class B calcitonin (CT) G-protein-coupled receptor (CTR) and receptor activity-modifying proteins (RAMPs). All three RAMPs can interact with the CTR and form AMY1, AMY2, AMY3 with RAMP1, RAMP2 and RAMP3, respectively. Like other class B1 GPCRs, the CT receptor family is canonically coupled to Gs-mediated cAMP production, and measurement of cAMP accumulation has been the primary assay used to determine peptide selectivity and potency. […]
measurement.name: EC50 (nM)

Look over these answered cases.
compound="Cc1cc(-c2c(CCC3CCOCC3)nc3c(c2-c2cc4ccnc(N[C@@H]5CCc6ncccc65)c4s2)S(=O)(=O)CC3C(C)C)ccn1 (stereo partly drawn)" measured_on="human calcitonin receptor (CTR) and RAMP3 (AMY3) (Homo sapiens, UniProt O60896+P30988)" unit_annotation=nM quantitative_result=499
compound=Cc1nnc(-c2c(CCC3CCOCC3)nc3c(c2-c2cc4ccnc(N[C@@H]5CCc6ncccc65)c4s2)c(=O)n2n3CCC2)o1 measured_on="human calcitonin receptor (CTR) and RAMP3 (AMY3) (Homo sapiens, UniProt O60896+P30988)" unit_annotation=nM quantitative_result=1080
compound="Cc1nnc(-c2c(CCC3CCOCC3)nc3c(c2-c2ccn4c(Cc5ccc(F)c(F)c5)cnc4c2)S(=O)(=O)CC3C(C)C)o1 (stereo not drawn)" measured_on="human calcitonin receptor (CTR) and RAMP3 (AMY3) (Homo sapiens, UniProt O60896+P30988)" unit_annotation=nM quantitative_result=1540
compound="Cc1nnc(-c2c(CCC3CCOCC3)nc3c(c2-c2cc4ncnc(N[C@@H]5CCc6ncccc65)c4s2)S(=O)(=O)CC3C2CC2)o1 (stereo partly drawn)" measured_on="human calcitonin receptor (CTR) and RAMP3 (AMY3) (Homo sapiens, UniProt O60896+P30988)" unit_annotation=nM quantitative_result=1190

[1] COc1nnc(-c2c(CCC3CCOCC3)nc3c(c2-c2cc4ccnc(N[C@@H]5CCc6ncccc65)c4s2)S(=O)(=O)CC3C(C)C)o1 (stereo partly drawn)
[2] Cc1nnc(-c2c(CCC3CCOCC3)nc3c(c2-c2cc4ccnc(N[C@@H]5CCc6ncccc65)c4o2)S(=O)(=O)CC3C(C)C)o1 (stereo partly drawn)
## Task For this pair, 1 and 2 , which shows a numerically higher EC50? Mark your answer with the label of the selected entry.
## Result 1

Each recorded value in this set is attributed to patent US20250051355A1.
